The measured values listed here are drawn from ChEMBL document CHEMBL3414448.

Exercise: state measured pIC50 for each of the compounds provided.
# target of assay: Cell division protein FtsZ (Escherichia coli K-12)
# Sequence (P0A9A6 whole entry): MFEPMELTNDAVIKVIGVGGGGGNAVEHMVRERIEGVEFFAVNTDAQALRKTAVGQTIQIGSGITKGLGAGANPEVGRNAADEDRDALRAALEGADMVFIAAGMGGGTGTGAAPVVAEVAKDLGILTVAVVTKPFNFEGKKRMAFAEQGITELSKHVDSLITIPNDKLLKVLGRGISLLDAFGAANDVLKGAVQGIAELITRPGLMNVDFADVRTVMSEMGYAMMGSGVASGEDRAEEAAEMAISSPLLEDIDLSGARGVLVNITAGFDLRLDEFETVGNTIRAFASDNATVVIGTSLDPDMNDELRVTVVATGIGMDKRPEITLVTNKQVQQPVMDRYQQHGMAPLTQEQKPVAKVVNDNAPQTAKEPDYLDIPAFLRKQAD
# assay text: Inhibition of Escherichia coli FtsZ polymerization
Please treat pIC50 as minus the base-10 logarithm of the molar concentration.

Input line: Read the entry COC(=O)CC1Cc2cc3cc(OC)c(-c4c(OC)cc5cc6c(c(O)c5c4O)C(=O)OC(CC(=O)OC)C6)c(O)c3c(O)c2C(=O)O1 (configuration not stated) and write its reported pIC50.
Output line: 4.91

Input line: Read the entry O=C/C=C/c1ccccc1 and write its reported pIC50.
Output line: 5.16

----------
# assay text: Half life in staphylococcal growth media
reported property: half-life (h)
Give the value in h but do not write h after it.

Input line: Read the entry CN1CCC(C(=O)NC(=O)c2c(F)ccc(OCc3nc4cc(Cl)cnc4s3)c2F)CC1 and write its reported half-life.
Output line: 8.2

----------
# assay text: Half life in 100% filtered mouse serum
# Format: ADME
reported property: half-life (min)
Give the value in min but do not write min after it.

Input line: Read the entry CN1CCC(C(=O)NC(=O)c2c(F)ccc(OCc3nc4cc(Cl)cnc4s3)c2F)CC1 and write its reported half-life.
Output line: 3.4

----------
# target of assay: Cell division protein FtsZ (Mycobacterium tuberculosis)
# Sequence (P9WN95 whole entry): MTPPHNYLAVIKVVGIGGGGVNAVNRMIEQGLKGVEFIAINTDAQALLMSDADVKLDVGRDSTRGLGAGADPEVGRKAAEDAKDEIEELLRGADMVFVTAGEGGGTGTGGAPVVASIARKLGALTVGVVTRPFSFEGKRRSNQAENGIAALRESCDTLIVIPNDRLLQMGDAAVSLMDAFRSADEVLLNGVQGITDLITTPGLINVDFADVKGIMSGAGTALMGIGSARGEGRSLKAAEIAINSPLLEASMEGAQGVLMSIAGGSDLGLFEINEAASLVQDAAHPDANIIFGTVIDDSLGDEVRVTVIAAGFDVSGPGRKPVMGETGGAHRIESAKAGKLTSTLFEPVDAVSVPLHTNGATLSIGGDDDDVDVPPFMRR
reported property: Kd (µM)
Give the value in µM but do not write µM after it.

Input line: Read the entry CC(C)c1c(O)ccc2c1CC[C@H]1C(C)(C)CCC[C@]21C and write its reported Kd.
Output line: 11

----------
Exercise: state measured MIC for each of the molecules provided.
# Tested on: Staphylococcus aureus
# assay text: Antimicrobial activity against Staphylococcus aureus
# Assay type: functional
Give the value in µg/mL but do not write µg/mL after it.

Input line: Read the entry Cc1nc(-c2cccs2)cc([C@H]2CN3CC[C@H]2C[C@@H]3CNC(=O)CCCC(=O)O)n1 and write its reported MIC.
Output line: 384

Input line: Read the entry COc1ccc(/N=C/c2ccc(OC(C)=O)c(OC)c2[N+](=O)[O-])cc1 and write its reported MIC.
Output line: 1.56

Input line: Read the entry COC(=O)CC1Cc2cc3cc(OC)c(-c4c(OC)cc5cc6c(c(O)c5c4O)C(=O)OC(CC(=O)OC)C6)c(O)c3c(O)c2C(=O)O1 (centres undefined) and write its reported MIC.
Output line: 4

Input line: Read the entry O=C1C[C@@H](c2ccccc2)Oc2c(Cc3cc(Cc4ccccc4O)ccc3O)c(O)c(Cc3cc(Cc4ccccc4O)ccc3O)c(O)c21 and write its reported MIC.
Output line: 1.16

----------
# assay text: Inhibition of FtsZ (unknown origin) assessed as reduction in enzyme GTPase activity
reported property: IC50 (µM)
Give the value in µM but do not write µM after it.

Input line: Read the entry Cc1nc(-c2cccs2)cc([C@H]2CN3CC[C@H]2C[C@@H]3CNC(=O)CCCC(=O)O)n1 and write its reported IC50.
Output line: 317

Input line: Read the entry CCC(CC)c1cc([C@H]2CN3CC[C@H]2C[C@@H]3CNCc2ccc(CO)o2)nc(-c2ccncc2)n1 and write its reported IC50.
Output line: 73.2

Input line: Read the entry CC(C)c1c(O)ccc2c1CC[C@H]1C(C)(C)CCC[C@]21C and write its reported IC50.
Output line: 40.8

Input line: Read the entry COc1ccc2cc3[n+](cc2c1OC)CCc1cc2c(cc1-3)OCO2 and write its reported IC50.
Output line: 16
